Test system: HT-29 human colon adenocarcinoma cells
assay_method_text: Cytotoxicity assay (sulforhodamine B), HT-29
Format: cell-based
test_settings: HT29, 24 h exposure, then 48 h drug-free
pIC50: −log10 of the molar value.

| smiles_notation | pIC50 |
| --- | --- |
| COc1ccc(/C(F)=C(/F)c2cc(OC)c(OC)c(OC)c2)cc1O | < 6.70 |

====

Test system: EA-hy 926 cell line
assay_method_text: Cytotoxicity assay (sulforhodamine B), EA-hy 926
Type: cell-based
test_settings: Homo sapiens, EAHY.926, 24 h exposure, then 48 h drug-free

| compound | IC50 [nM] |
| --- | --- |
| COc1ccc(/C(F)=C(/F)c2cc(OC)c(OC)c(OC)c2)cc1O [ST2303] | 5 |

====

Test system: A2780 human ovarian carcinoma
assay_method_text: Cytotoxicity assay (sulforhodamine B), A2780
Format: cell-based
test_settings: 24 h exposure, then 48 h drug-free
pIC50: −log10 of the molar value.

| smiles_notation | study_target | pIC50 |
| --- | --- | --- |
| COc1ccc(/C(F)=C(/F)c2cc(OC)c(OC)c(OC)c2)cc1O | A2780 human ovarian carcinoma | 8.52 |

====

Tested on: bovine microvascular endothelial cells (BMEC)
assay_method_text: Cytotoxicity assay (sulforhodamine B), BMEC
Format: cell-based
test_settings: Bos taurus, Endothelial cell, 24 h exposure, then 48 h drug-free

| smiles_notation | IC50 / nM |
| --- | --- |
| COc1ccc(/C(F)=C(/F)c2cc(OC)c(OC)c(OC)c2)cc1O | 1 |

====

Test system: MeWo human melanoma
assay_method_text: Cytotoxicity assay (sulforhodamine B), MeWo
Format: cell-based
test_settings: 24 h exposure, then 48 h drug-free

| compound | measurement_units | IC50 |
| --- | --- | --- |
| COc1ccc(/C(F)=C(/F)c2cc(OC)c(OC)c(OC)c2)cc1O [ST2303] | nM | 3.6 |
